test system: CASKI; test: Primary qHTS to identify gynecologic anti-cancer compounds using libraries of approved drugs and bioactive compounds (AID 1345084); details: Gynecologic cancer cell panel viability, ATPlite luminescence, 48 h; series mostly up to 57.5 µM; further: on the % scale 0 is the no-effect control and ±100 the full control effect; nearly all actives have a fitted effect of over 55% in size
Results filed as inconclusive are left out. Calls of active or inactive are those of the source. The call rests on the fitted dose curve; in most records, active means well fitted cell-killing curve with a large enough effect; inconclusive means small, poorly fitted or top-dose-only effect, or effect the other way; inactive means flat fitted curve, though single readings scatter.
reported property: activity change, negative = cytotoxicity

>>> assay_value("C[C@H]1CC[C@@]2(OC1)O[C@H]1CC3C4CC[C@H]5C[C@@H](O[C@@H]6O[C@H](CO)[C@H](O[C@@H]7O[C@H](CO)[C@@H](O)[C@H](O[C@@H]8OC[C@@H](O)[C@H](O)[C@H]8O)[C@H]7O[C@@H]7O[C@H](CO)[C@@H](O)[C@H](O)[C@H]7O)[C@H](O)[C@H]6O)[C@H](O)C[C@]5(C)C4=CC(=O)[C@]3(C)[C@H]1[C@@H]2C (some centres not stated)")
"-2.7% [at 11.6 µM] (inactive)"
>>> assay_value("CC1(C)CC[C@]2(C(=O)O[C@@H]3O[C@H](CO)[C@@H](O)[C@H](O)[C@H]3O)CC[C@]3(C)C(=CCC4[C@@]5(C)CC[C@H](O[C@@H]6O[C@H](C(=O)O)[C@@H](O[C@@H]7O[C@H](CO)[C@@H](O)[C@H](O)[C@H]7O)[C@H](O)[C@H]6O)C(C)(C)C5CC[C@]43C)C2C1 (some centres not stated)")
"0.127% [at 11.6 µM] (inactive)"
>>> assay_value("CC(=O)O[C@@H]1[C@@H](O)[C@H](C)O[C@@H](O[C@H]2[C@@H]3C=CO[C@@H](O[C@@H]4O[C@H](CO)[C@@H](O)[C@H](O)[C@H]4OC(C)=O)[C@@H]3[C@@]3(CO)O[C@@H]23)[C@@H]1OC(=O)/C=C/c1ccc(O)cc1")
"inactive"
>>> assay_value("C=C1CC2C(C)(CCC(=O)O)C(C(C)(C)O)CCC2(C)C2(C(=O)OC)C(=O)C(C)(O)C(=O)C12C (configuration not stated)")
"inactive"
>>> assay_value("CN1CCN(c2nc(-c3ccc(C(=O)NC4(C(=O)NCC#N)CCCCC4)cc3)cs2)CC1")
"inactive"
>>> assay_value("COc1cc2nc(=NC(=O)c3cccnc3)n3c(c2cc1OC)NCC3")
"inactive"
>>> assay_value("OC[C@H]1O[C@@H](OC[C@H]2O[C@@H](OCc3ccccc3)[C@H](O)[C@@H](O)[C@@H]2O)[C@H](O)[C@@H](O)[C@@H]1O")
"inactive"
>>> assay_value("Cc1cn2cc(CC(=O)N3CCC4(CC3)CN(Cc3ccc(-n5nccn5)cc3Cl)C4)nc2s1")
"inactive"
>>> assay_value("C=C1CCC2C(C)(C(=O)O)CCCC2(C)C1CC/C(C)=C\\CO (configuration not stated)")
"inactive"
>>> assay_value("C[C@@H]1O[C@@H](O[C@H]2[C@H](O[C@H]3[C@H](O[C@H]4CC[C@@]5(C)C(CC[C@]6(C)C5CC=C5[C@@H]7CC(C)(C)C[C@@H](O)[C@]7(C)CC[C@]56C)C4(C)C)O[C@H](C(=O)O)[C@@H](O)[C@@H]3O)O[C@H](C(=O)O)[C@H](O)[C@@H]2O)[C@H](O)[C@H](O)[C@H]1O (some centres not stated)")
"12.7% [at 11.6 µM] (inactive)"
>>> assay_value("CC1(O)CCC2C(C3C1CCC3(C)O)C2(C)C (configuration not stated)")
"inactive"
>>> assay_value("CC1=C2C[C@@]3(C)C(CCC[C@@H]3C)C(O)C2(O)OC1=O (some centres not stated)")
"inactive"
>>> assay_value("CC1=CC23[C@H](C=C(C(=O)O)[C@@H]2COC(=O)[C@]3(O)CO)[C@@H]1C (some centres not stated)")
"inactive"
>>> assay_value("CC(C)[C@@H](C(=O)O)N1Cc2c(cc(O)c3c2O[C@]2(C3)[C@H](C)CCC3C(C)(C)[C@H](O)[C@H](O)C[C@@]32C)C1=O (some centres not stated)")
"inactive"
>>> assay_value("CC(C)=C1CC2[C@](C)(CC[C@@H](OC(=O)C3(C)OC3C)[C@@]2(C)O)CC1=O (some centres not stated)")
"inactive"
>>> assay_value("C=C1[C@H](OC(C)=O)[C@H]2[C@@H](OC(C)=O)C(C)C[C@]2(OC(C)=O)C(=O)[C@H](C)/C=C/C(C)(C)C(=O)[C@H](OC(=O)C(C)C)[C@H]1OC(C)=O (some centres not stated)")
"inactive"
>>> assay_value("C=CC(C)(O)CC/C=C(\\C)COC1O[C@H](CO)[C@@H](O)[C@H](O)[C@H]1O (some centres not stated)")
"inactive"
>>> assay_value("C=C1CCC2C(C)(C)CC(=O)CC2(C)C1CCC(C)CCO (configuration not stated)")
"inactive"
>>> assay_value("CC1(C)CCC2(C(=O)O)C(O)CC3(C)C(=CCC4C5(C)CCC(OC6OC(CO)C(O)C(O)C6OC6OC(CO)C(O)C(O)C6OC6OCC(O)(CO)C6O)C(C)(C)C5CCC43C)C2C1 (configuration not stated)")
"-10.6% [at 11.6 µM] (inactive)"
>>> assay_value("CC1=C2C(=O)C=C(CO[C@@H]3O[C@H](CO)[C@@H](O)[C@H](O)[C@H]3O)[C@@H]2[C@H]2OC(=O)[C@H](C)[C@@H]2[C@@H](O)C1")
"inactive"
>>> assay_value("CC1(C)CC[C@]2(C(=O)O[C@@H]3O[C@H](CO)[C@@H](O)[C@H](O)[C@H]3O)CC[C@]3(C)C(=CCC4[C@@]5(C)C[C@H](O)[C@H](O[C@@H]6OC[C@@H](O)[C@H](O)[C@H]6O)[C@@](C)(CO)C5CC[C@]43C)C2C1 (some centres not stated)")
"2.82% [at 11.6 µM] (inactive)"
>>> assay_value("CCC1=C(C)C(=O)C(C)CC12C(=O)CCC2C(=O)O (configuration not stated)")
"inactive"
>>> assay_value("CC[C@H]1OC(=O)[C@H](C)C(=O)[C@H](C)[C@@H](OC2O[C@H](C)C[C@H](N(C)C)[C@H]2O)[C@@H](C)C[C@@H](C)C(=O)/C=C/[C@]1(C)O (some centres not stated)")
"inactive"
>>> assay_value("Cc1cc(-n2c(=O)[nH]c(=O)n(C)c2=O)ccc1Oc1ccc(SC(F)(F)F)cc1")
"inactive"
>>> assay_value("CC1OC(O[C@H]2CC[C@@]3(C)C(CC[C@]4(C)C3CC=C3C5CC(C)(C)CC[C@]5(C(=O)OC5OC(CO)C(OC6OCC(OC7OCC(O)C(O)C7O)C(O)C6O)C(O)C5O)CC[C@]34C)C2(C)C)C(O)C(O)C1OC1OC(CO)C(O)C(OC2OC(CO)C(O)C(O)C2O)C1O (some centres not stated)")
"-4.77% [at 6.55 µM] (inactive)"
>>> assay_value("C=C1CCC(OC(C)=O)C2(C)CC3OC(=O)C(C)=C3CC12 (configuration not stated)")
"inactive"
>>> assay_value("C=C(COC(=O)C(C)C)C1Oc2cc(C(C)=O)ccc2C1OC(=O)C(C)C (configuration not stated)")
"inactive"

Attribution: PubChem BioAssay (NCATS)
